test system: HCV replication; assay: HCV replicon assay (luciferase) in ET (Huh-lucubineo-ET) cell line; assay type: cell-based; settings: Hepatitis C virus, tested at 5 μM; ET replicon cells; luciferase activity measured 48-72 hours later; relative to no compound control
REPORTED_METRIC: inhibition at 5 µM (%)
Write down the numeric answer in % and omit the unit.

Ask: For the compound shown here, O=C(NC1CC1)c1ccc(-c2csc(NC(=O)[C@@H]3CSC(c4ccncc4)N3C(=O)OCc3ccccc3)n2)cc1 (mixture of isomers) , give the reported inhibition at 5 µM.
Reply: 99.8

Ask: Find the recorded inhibition at 5 µM belonging to COCCNC(=O)c1ccc(NC(=O)[C@@H]2CSC(c3ccncc3)N2C(=O)OCc2ccccc2)cc1 (stereo in doubt) and report it.
Reply: 22.1

Ask: Give its inhibition at 5 µM value. Item: COC(=O)CCCCC1SC[C@@H](C(=O)Nc2nc(-c3ccc(C(=O)NC4CC4)cc3)cs2)N1C(=O)OCc1ccccc1 (stereo partly shown)
Reply: 99.9

Ask: # query: inhibition at 5 µM of entry COC(=O)c1ccc(C2SC[C@@H](C(=O)Nc3nc(-c4ccc(C(=O)NC5CC5)cc4)cs3)N2C(=O)OCc2ccccc2)cc1 (mixture of isomers)
Reply: 99.4

Ask: Name the reported inhibition at 5 µM value associated with the compound CC(C)(C)OC(=O)N1C(c2cccnc2)SC[C@H]1C(=O)Nc1nc(-c2ccc(C(=O)NC3CC3)cc2)cs1 (single isomer, unassigned)
Reply: 99.2

Ask: Fill in the blank: the reported inhibition at 5 µM of O=C(Nc1nc(-c2ccccc2)cs1)[C@@H]1CSC2(CCOCC2)N1C(=O)OCc1ccccc1 is ____.
Reply: 88

Ask: Please report the recorded inhibition at 5 µM for O=C(NC1CC1)c1ccc(-c2csc(NC(=O)[C@@H]3CS[C@@H](c4cccnc4)N3C(=O)OCc3ccccc3)n2)cc1 .
Reply: 99.9

Ask: Which inhibition at 5 µM value belongs to O=C(NC1CC1)c1ccc(-c2csc(NC(=O)[C@@H]3CSC(c4ccnc(O)c4)N3C(=O)OCc3ccccc3)n2)cc1 (mixture of isomers) ?
Reply: 98.8

Ask: Entry Cn1ccnc1C1SC[C@@H](C(=O)Nc2nc(-c3ccc(C(=O)NC4CC4)cc3)cs2)N1C(=O)OCc1ccccc1 (mixture of isomers) [Compound 7053] has what inhibition at 5 µM?
Reply: 99.6

Ask: So what does the record say about inhibition at 5 µM for O=C(NC1CC1)c1ccc(-c2csc(NC(=O)[C@@H]3CSC(c4cccc(CN5CCOCC5)c4)N3C(=O)OCc3ccccc3)n2)cc1 (mixture of isomers) ?
Reply: 100

Ask: Look up inhibition at 5 µM: O=C(NC1CC1)c1ccc(-c2csc(NC(=O)[C@@H]3CSC(c4cncs4)N3C(=O)OCc3ccccc3)n2)cc1 (mixture of isomers)
Reply: 100

Ask: Consider the compound O=C(NC1CC1)c1ccc(-c2csc(NC(=O)C3Cc4ccccc4N3C(=O)OCc3ccccc3)n2)cc1 (stereo not shown) and give its measured inhibition at 5 µM.
Reply: 98.3

Ask: Look up inhibition at 5 µM for this compound: O=C(NC1CC1)c1ccc(-c2csc(NC(=O)[C@@H]3CC[C@H](c4ccccc4)N3C(=O)OCc3ccccc3)n2)cc1
Reply: 98.9

Ask: I have this compound here, COc1ccc(C2SC[C@@H](C(=O)Nc3nc(-c4ccc(C(=O)NC5CC5)cc4)cs3)N2C(=O)OCc2ccccc2)cc1 (mixture of isomers) , and I need its recorded inhibition at 5 µM.
Reply: 99.9

Ask: # lookup: inhibition at 5 µM of COc1cccc(C2SC[C@@H](C(=O)Nc3nc(-c4ccc(C(=O)NC5CC5)cc4)cs3)N2C(=O)OCc2ccccc2)c1 (mixture of isomers)
Reply: 98.5

Ask: For the compound shown here, N#Cc1cccc(C2OC[C@@H](C(=O)Nc3nc(-c4ccc(C(=O)NC5CC5)cc4)cs3)N2C(=O)OCc2ccccc2)c1 (stereo in doubt) , give the reported inhibition at 5 µM.
Reply: 100

Ask: What value of inhibition at 5 µM has been recorded for this entry: N#Cc1ccc(C2SC[C@@H](C(=O)Nc3nc(-c4ccc(C(=O)NC5CC5)cc4)cs3)N2C(=O)OCc2ccccc2)cc1 (mixture of isomers)
Reply: 100

Ask: Give its inhibition at 5 µM value. Item: O=C(NC1CCCC1)c1ccc(-c2csc(NC(=O)[C@@H]3CSC(c4ccncc4)N3C(=O)OCc3ccccc3)n2)cc1 (stereo partly shown)
Reply: 98.8

Ask: Which inhibition at 5 µM is reported for this compound? O=C(NC1CC1)c1ccc(-c2csc(NC(=O)[C@@H]3CSC(c4ccccc4)N3C(=O)OCc3ccccc3)n2)cc1 (stereo partly shown)
Reply: 98

Ask: I would be grateful if you could share the reported inhibition at 5 µM for O=C(Cc1ccc(NC(=O)[C@@H]2CSC(c3ccncc3)N2C(=O)OCc2ccccc2)cc1)NCc1ccccc1 (stereo in doubt) .
Reply: 74.2

Ask: # inhibition at 5 µM lookup, item O=C(NC1CC1)c1ccc(-c2csc(NC(=O)[C@@H]3CSC(c4cnco4)N3C(=O)OCc3ccccc3)n2)cc1 (mixture of isomers)
Reply: 99.8

Ask: Given O=C(NCCN1CCOCC1)c1ccc(-c2csc(NC(=O)[C@@H]3CSC4(CCOCC4)N3C(=O)OCc3ccccc3)n2)cc1 , state its recorded inhibition at 5 µM.
Reply: 100

Ask: # query: inhibition at 5 µM of entry O=C(Cc1cccc(NC(=O)[C@@H]2CSC(c3ccncc3)N2C(=O)OCc2ccccc2)c1)NCCc1ccccc1 (stereo partly shown)
Reply: 90

Ask: Quick one: inhibition at 5 µM of O=C(NC1CC1)c1ccc(NC(=O)[C@@H]2CSC(c3ccncc3)N2C(=O)OCc2ccccc2)cc1 (stereo in doubt) ?
Reply: 6.9

Ask: What value of measured inhibition at 5 µM is listed for O=C(Cc1ccc(NC(=O)[C@@H]2CSC(c3ccncc3)N2C(=O)OCc2ccccc2)cc1)NCCc1ccccc1 (stereo partly shown) ?
Reply: 1.2

---

test system: HCV replication; test: HCV replicon assay (luciferase) in ET (Huh-lucubineo-ET) cell line; type: cell-based; conditions: Hepatitis C virus, tested at 5 μM; ET replicon cells; luciferase activity measured 48-72 hours later; relative to no compound control
What inhibition at 5 µM was measured for each of the following?
Give the number; % is assumed, so skip it.

Ask: What measured inhibition at 5 µM goes with O=C(Nc1ccccc1)[C@@H]1CSC(c2cccnc2)N1C(=O)OCc1ccccc1 (some centres unmarked) ?
Reply: 47.6

Ask: # inhibition at 5 µM lookup, item O=C(Nc1nc(-c2ccccc2)cs1)[C@@H]1CSC(c2ccncc2)N1C(=O)OCc1ccccc1 (some centres unmarked)
Reply: 89.1

Ask: Please give the measured inhibition at 5 µM for this molecule: O=C(Cc1cccc(NC(=O)[C@@H]2CSC(c3ccncc3)N2C(=O)OCc2ccccc2)c1)NCc1ccccc1 (some centres unmarked)
Reply: 84.9

Ask: Which inhibition at 5 µM reading was recorded for the molecule O=C(NC1CC1)c1ccc(-c2csc(NC(=O)[C@@H]3CSC(C4CCOCC4)N3C(=O)[C@H]3CCCO3)n2)cc1 (some centres unmarked) ?
Reply: 99

Ask: Endpoint output: inhibition at 5 µM of O=C(NC1CC1)c1ccc(-c2csc(NC(=O)[C@@H]3CC[C@H](c4ccncc4)N3C(=O)OCc3ccccc3)n2)cc1 . Value?
Reply: 100

Ask: What does the data say about its inhibition at 5 µM? Entry: O=C(NC1CC1)c1ccc(-c2csc(NC(=O)[C@@H]3CSC(c4cccc(F)c4)N3C(=O)OCc3ccccc3)n2)cc1 (mixture of isomers)
Reply: 99.3

Ask: Tell me the measured inhibition at 5 µM of NC(=O)c1ccc(NC(=O)[C@@H]2CSC(c3ccncc3)N2C(=O)OCc2ccccc2)cc1 (some centres unmarked) , please.
Reply: 13.6

Ask: What value of measured inhibition at 5 µM is listed for O=C(NC1CC1)c1ccc(-c2csc(NC(=O)[C@@H]3CSC(c4ccc(F)cc4)N3C(=O)OCc3ccccc3)n2)cc1 (mixture of isomers) ?
Reply: 99.7

Ask: // returns reported inhibition at 5 µM for input O=C(NCCN1CCOCC1)c1ccc(-c2csc(NC(=O)[C@@H]3COC4(CCOCC4)N3C(=O)OCc3ccccc3)n2)cc1
Reply: 100

Ask: Fill blank: measured inhibition at 5 µM of the molecule CC(C)(C)OC(=O)NCc1ccc(NC(=O)[C@@H]2CSC(c3ccncc3)N2C(=O)OCc2ccccc2)cc1 (some centres unmarked) is ____.
Reply: 35.6

Ask: Which inhibition at 5 µM is reported for this molecule? O=C(Nc1nc(-c2ccccc2)cs1)[C@@H]1Cc2ccccc2N1C(=O)OCc1ccccc1
Reply: 78.5

Ask: inhibition at 5 µM lookup needed for O=C(NC1CC1)c1ccc(-c2csc(NC(=O)[C@@H]3CSC(CCCCC(=O)N4CCCCC4)N3C(=O)OCc3ccccc3)n2)cc1 (stereo in doubt) , thanks.
Reply: 100

Ask: Data request, read-out inhibition at 5 µM, for CN(C)c1ncc(C2SC[C@@H](C(=O)Nc3nc(-c4ccc(C(=O)NC5CC5)cc4)cs3)N2C(=O)OCc2ccccc2)cn1 (stereo in doubt)
Reply: 100

Ask: Record request: inhibition at 5 µM value, item O=C(O)CCC1SC[C@@H](C(=O)Nc2nc(-c3ccc(C(=O)NC4CC4)cc3)cs2)N1C(=O)OCc1ccccc1 (mixture of isomers)
Reply: 92

Ask: Quick check: inhibition at 5 µM of CC(C)(C)OC(=O)N1C(C2CCOCC2)SC[C@H]1C(=O)Nc1nc(-c2ccc(C(=O)NC3CC3)cc2)cs1 (some centres unmarked) ?
Reply: 99.7

Ask: Item N#Cc1cccc(C2SC[C@@H](C(=O)Nc3nc(-c4ccc(C(=O)NC5CC5)cc4)cs3)N2C(=O)OCc2ccccc2)c1 (mixture of isomers) has what recorded inhibition at 5 µM?
Reply: 100

Ask: inhibition at 5 µM lookup needed for O=C(Nc1ccc(CNS(=O)(=O)c2ccc(-c3ccccc3)cc2)cc1)[C@@H]1CSC(c2ccncc2)N1C(=O)OCc1ccccc1 (stereo in doubt) , thanks.
Reply: 65.3

Ask: Fill in: inhibition at 5 µM of CNC(=O)CCCCC1SC[C@@H](C(=O)Nc2nc(-c3ccc(C(=O)NC4CC4)cc3)cs2)N1C(=O)OCc1ccccc1 (some centres unmarked) is ___
Reply: 100

Ask: Any idea what its inhibition at 5 µM is? The molecule is O=C(Nc1cccnc1)c1ccc(-c2csc(NC(=O)[C@@H]3CSC4(CCOCC4)N3C(=O)OCc3ccccc3)n2)cc1
Reply: 100

Ask: # get_value(readout='inhibition at 5 µM', item= O=C(NC1CC1)c1ccc(-c2csc(NC(=O)[C@@H]3CSC(c4cc[n+]([O-])cc4)N3C(=O)OCc3ccccc3)n2)cc1 (some centres unmarked) )
Reply: 100

Ask: Form field: reported inhibition at 5 µM of O=C(NC1CC1)c1ccc(-c2csc(NC(=O)[C@@H]3Cc4ccccc4CN3C(=O)OCc3ccccc3)n2)cc1
Reply: 97.5

Ask: Dear colleague, I am looking for the recorded inhibition at 5 µM of the following molecule: O=C(Nc1ccc(CNS(=O)(=O)c2ccccc2)cc1)[C@@H]1CSC(c2ccncc2)N1C(=O)OCc1ccccc1 (some centres unmarked)
Reply: 43

Ask: What value of inhibition at 5 µM has been recorded for this entry: CC(=O)c1cccc(C2SC[C@@H](C(=O)Nc3nc(-c4ccc(C(=O)NC5CC5)cc4)cs3)N2C(=O)OCc2ccccc2)c1 (some centres unmarked)
Reply: 100

Ask: // returns reported inhibition at 5 µM for input O=C(NC1CC1)c1ccc(-c2csc(NC(=O)[C@@H]3CSC(c4cncnc4)N3C(=O)OCc3ccccc3)n2)cc1 (mixture of isomers)
Reply: 100

Ask: Requested read-out: inhibition at 5 µM. Entry: O=C(NC1CC1)c1ccc(-c2csc(NC(=O)[C@@H]3CSC(c4ccnc(Cl)c4)N3C(=O)OCc3ccccc3)n2)cc1 (mixture of isomers)
Reply: 99.8

Ask: inhibition at 5 µM for O=C(Cc1cccc(NC(=O)[C@@H]2CSC(c3ccncc3)N2C(=O)OCc2ccccc2)c1)NCc1ccc(Cl)cc1 (stereo in doubt) ?
Reply: 98
